Property: viability; scope: individual compounds
assay: MRP1 drug-resistance reversers in H69AR cells – cell-based, doxorubicin co-treatment, pilot screen (AID 601); conditions: H69AR cells, CellTiter-Glo, 72 h; compound alone cytotoxicity; at 10 µM
Numeric answer only, unit % assumed.

Guide cases for viability, answers given:
{"compound": "CCOC(=O)c1cccc([P+](=O)O)c1", "value-units": "%", "viability": 96.5}
{"compound": "Cc1ccc(CC2C(=O)N(C)C(=O)N(C)C2=O)s1", "value-units": "%", "viability": 95.4}
{"compound": "COc1ccc(C(=O)C(C)(C)NO)cc1", "value-units": "%", "viability": 86.5}
{"compound": "COC(=O)c1c(C)n(Cc2ccc3c(c2)OCO3)c2ccc(O)cc12", "value-units": "%", "viability": 105}
{"compound": "CC[N+]1(C)CCCC(OC(=O)C(O)(c2ccccc2)c2ccccc2)C1 (stereo unspecified)", "value-units": "%", "viability": 101}

Now look at this one.
Prompt line: May I ask what viability has been recorded for `O=c1[nH]c(=O)n(Cc2ccc(F)cc2)c(O)c1C=NCCCN1CCOCC1` ?
Response line: 95.5

* * *

target: Pantothenate synthetase (Mycobacterium tuberculosis (strain ATCC 25618 / H37Rv)) (UniProt P9WIL5); assay: Coupled enzyme confirmation of inhibitors against recombinant Mtb PanC (AID 375); details: coupled enzyme assay; at 10 µM, stronger effect = higher value;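 further: 0% = full reaction with vehicle and 100% = no enzyme background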
Sequence (P9WIL5 whole entry, looked up): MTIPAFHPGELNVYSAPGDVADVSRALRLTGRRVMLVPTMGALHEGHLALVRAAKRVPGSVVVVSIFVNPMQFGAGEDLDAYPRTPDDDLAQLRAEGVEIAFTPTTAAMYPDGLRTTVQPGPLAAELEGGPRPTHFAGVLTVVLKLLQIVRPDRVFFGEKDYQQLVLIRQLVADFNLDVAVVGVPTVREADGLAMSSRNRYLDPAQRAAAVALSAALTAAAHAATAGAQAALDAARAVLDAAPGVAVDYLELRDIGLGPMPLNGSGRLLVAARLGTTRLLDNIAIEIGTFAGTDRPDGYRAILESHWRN
Below, each entry is listed alongside its reported inhibition.
Record the value in %, omitting the unit from your answer.

Example entries and their recorded answers appear below.
{"molecule": "COCCSc1nnc(NC(=O)Cc2ccccc2OC)s1", "inhibition / %": 4}
{"molecule": "OC(CN1CCN(c2ccccc2)CC1)c1ccc2c(c1)CCN2 (stereo unspecified)", "inhibition / %": 0}

Prompt line: Which inhibition is listed for `COc1cc(CNc2ccc(N3CCOCC3)c(C(=O)O)c2)ccc1OCC(N)=O` ?
Response line: 1

Prompt line: Another: `Clc1ccc(-n2ncc3c(NCCCn4ccnc4)ncnc32)cc1`
Response line: 0

Prompt line: Quick one: `O=C(Nc1sc2c(c1C(=O)NCc1ccco1)CCCC2)c1ccc2c(c1)OCO2`
Response line: 1

Prompt line: Try this molecule too: `O=C(Nc1ccc2c(c1)OCO2)c1cc2ncc(Br)cn2n1`
Response line: 3

* * *

test: yeast transport mutant growth inhibition pilot in 384-well plates, post-Golgi transport modulator project (AID 636); conditions: absorbance 615 nm, about 18 h, stronger effect = higher value
measurement-label: inhibition (%)
Answer format: numeric, % implied, no suffix.

Example molecules with recorded inhibition:
{"molecule": "O=C1CC(N2CCC(n3c(=O)[nH]c4ccccc43)CC2)C(=O)N1c1ccc(F)cc1 (stereo not given)", "inhibition, %": -4.74}
{"molecule": "O=C(C1CCCN(c2nnc(-n3cccc3)s2)C1)N1CCC2(CC1)OCCO2 (stereo not given)", "inhibition, %": -7.33}
{"molecule": "Cc1ccc2c(c1)[C@@H]1CN(C)CC[C@@H]1N2C(=O)Nc1cccc(C(F)(F)F)c1", "inhibition, %": 1.45}
{"molecule": "O=c1c2ccccc2[se]n1-c1ccccc1", "inhibition, %": 0.65}

Prompt line: Item `Cc1cccc(N2CCc3c2nc2ccccc2c3N)c1` has what recorded inhibition?
Response line: -2.53

* * *

target: Pantothenate synthetase (Mycobacterium tuberculosis (strain ATCC 25618 / H37Rv)) (UniProt P9WIL5); assay: Coupled enzyme confirmation of inhibitors against recombinant Mtb PanC (AID 375); details: coupled enzyme assay; at 10 µM, stronger effect = higher value;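 further: 0% = full reaction with vehicle and 100% = no enzyme background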
Activity calls are given as the source filed them. The rule behind the calls is not given here.
Recorded inhibition by entry

Prompt line: Give the measured inhibition of COc1cccc(C2C3=C(N=C4SCC(=O)N42)c2ccccc2CC3)c1OC (stereo unspecified) .
Response line: 4% (inactive)

Prompt line: # iterate: `CCN(c1ccccc1)S(=O)(=O)c1ccc(F)cc1C`
Response line: 1% (inactive)

Prompt line: Consider next the compound `COc1cc(OC)cc(-c2nnc(SCC(=O)Nc3cc(C)on3)o2)c1` in the same way.
Response line: 2% (inactive)

Prompt line: Also `COc1ccc(CCNC(=O)c2c(N)n(CCN3CCOCC3)c3nc4ccccc4nc23)cc1` , if possible.
Response line: 0% (inactive)

Prompt line: Next: `O=C(OCC(=O)c1ccccc1Br)c1ccccn1`
Response line: 3% (inactive)

Prompt line: Quick one: `CCOC(=O)c1cc2sc(C)cc2n1CC(=O)NCc1ccc(F)cc1`
Response line: 2% (inactive)

* * *

biological target: Pantothenate synthetase (Mycobacterium tuberculosis (strain ATCC 25618 / H37Rv)); experiment: Coupled enzyme confirmation of inhibitors against recombinant Mtb PanC (AID 375); conditions: coupled enzyme assay; at 10 µM, stronger effect = higher value;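 further: 0% = full reaction with vehicle and 100% = no enzyme background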
Measured inhibition, listed per entry.
Give just the number in %; leave the unit off.

Before answering, review these 8 worked examples.
{"molecule": "COc1cc(NC(=O)CN(c2cc(C)cc(C)c2)S(=O)(=O)c2c(C)noc2C)cc(OC)c1", "measured-on": "Pantothenate synthetase (Mycobacterium tuberculosis (strain ATCC 25618 / H37Rv))", "inhibition [%]": 0}
{"molecule": "O=C(CN1C(=O)c2ccccc2C1=O)NCC1COc2ccccc2O1 (stereo unspecified)", "measured-on": "Pantothenate synthetase (Mycobacterium tuberculosis (strain ATCC 25618 / H37Rv))", "inhibition [%]": 0}
{"molecule": "Cc1nc(NC2=NCN(CCCN3CCOCC3)CN2)nc2c(C)cccc12", "measured-on": "Pantothenate synthetase (Mycobacterium tuberculosis (strain ATCC 25618 / H37Rv))", "inhibition [%]": 0}
{"molecule": "COc1ccc(-c2ccc(-c3nnn(CC(C)=O)n3)cc2)cc1", "measured-on": "Pantothenate synthetase (Mycobacterium tuberculosis (strain ATCC 25618 / H37Rv))", "inhibition [%]": 2}
{"molecule": "Cc1onc(-c2ccccc2)c1C(=O)N1CCOCC1", "measured-on": "Pantothenate synthetase (Mycobacterium tuberculosis (strain ATCC 25618 / H37Rv))", "inhibition [%]": 9}
{"molecule": "O=C(OCCN(CCOC(=O)c1ccncc1)S(=O)(=O)c1cccs1)c1ccncc1", "measured-on": "Pantothenate synthetase (Mycobacterium tuberculosis (strain ATCC 25618 / H37Rv))", "inhibition [%]": 0}
{"molecule": "Clc1ccccc1OCCCCn1ccnc1", "measured-on": "Pantothenate synthetase (Mycobacterium tuberculosis (strain ATCC 25618 / H37Rv))", "inhibition [%]": 0}
{"molecule": "COCCn1c(NCc2ccc(C)cc2)nc2c1c(=O)[nH]c(=O)n2C", "measured-on": "Pantothenate synthetase (Mycobacterium tuberculosis (strain ATCC 25618 / H37Rv))", "inhibition [%]": 10}

Prompt line: // inhibition lookup, key: `OCCN(CCO)c1nc(N2CCCCC2)c2nc(N(CCO)CCO)nc(N3CCCCC3)c2n1`
Response line: 0

Prompt line: Okay, and `CCOc1ccc(OCc2cccc(C(=O)N3CCCC3)c2)cc1` ?
Response line: 6

Prompt line: Next molecule: `Cc1ccccc1Cn1cc(/C=N/n2cnnc2)c2ccccc21`
Response line: 0

* * *

experiment: growth suppression of yeast trafficking mutant, preliminary HTS, modulators of trafficking downstream of Golgi apparatus project, 1536-format plate, OD 615 nm (AID 637); settings: yeast transport mutant growth, absorbance 615 nm, 18 h; stronger effect = higher value
measurement-label: inhibition (%)
Express your answer in %, writing the number without its unit.

Sample answers from the record:
{"compound": "C=C1CC[C@@]2(O)[C@H]3Cc4ccc(O)c5c4[C@@]2(CCN3CC2CC2)[C@H]1O5", "value-units": "%", "inhibition": 6.83}
{"compound": "O=C1CC[C@@]2(O)[C@H]3Cc4ccc(O)c5c4[C@@]2(CCN3CC2CC2)[C@H]1O5", "value-units": "%", "inhibition": 2.17}
{"compound": "CCc1ccc(OCCCN=C(C)c2c(O)n(C)c(=O)n(C)c2=O)cc1", "value-units": "%", "inhibition": 1.83}
{"compound": "CN1[C@@H]2CC[C@H]1CC(OC(=O)C1C=Nc3ccccc31)C2 (some centres not stated)", "value-units": "%", "inhibition": 0.5}

Prompt line: Data request, read-out inhibition, for C=CCN1C(=O)C2(C(C(=O)OCC)=C(N)Oc3c2c(=O)oc2ccccc32)c2ccccc21 (configuration not stated)
Response line: 1.45

Prompt line: For C#CCN(C)C(C)Cc1ccccc1 (configuration not stated) then?
Response line: 2.33

Prompt line: Queued: `O=C(CN1CCN(Cc2cccc(Cl)c2)C1=O)N1CCC2(CC1)OCCO2`
Response line: -2.7

Prompt line: Let us now turn to `C#C[C@]1(O)CC[C@H]2[C@@H]3CCC4=CC(=O)CC[C@]4(C)[C@H]3CC[C@@]21C`
Response line: 11.2

Prompt line: Further, for COc1ccc(C2NCc3ccc4c(c3-n3cccc32)OCO4)cc1O (configuration not stated) ?
Response line: -5.56

Prompt line: Please do the same for `C[C@H]1CCCC(=O)CCCCCc2cc(O)cc(O)c2C(=O)O1` as well.
Response line: -1.83

Prompt line: Also check `CCCCCCn1c(O)c(C=NC2CCN(Cc3ccccc3)CC2)c(=O)[nH]c1=O`
Response line: 4.84
